Data provenance is patent US8778970B2.

- target: CYP2D6 (Homo sapiens (Human), UniProt P10635)
- Sequence (P10635 whole entry): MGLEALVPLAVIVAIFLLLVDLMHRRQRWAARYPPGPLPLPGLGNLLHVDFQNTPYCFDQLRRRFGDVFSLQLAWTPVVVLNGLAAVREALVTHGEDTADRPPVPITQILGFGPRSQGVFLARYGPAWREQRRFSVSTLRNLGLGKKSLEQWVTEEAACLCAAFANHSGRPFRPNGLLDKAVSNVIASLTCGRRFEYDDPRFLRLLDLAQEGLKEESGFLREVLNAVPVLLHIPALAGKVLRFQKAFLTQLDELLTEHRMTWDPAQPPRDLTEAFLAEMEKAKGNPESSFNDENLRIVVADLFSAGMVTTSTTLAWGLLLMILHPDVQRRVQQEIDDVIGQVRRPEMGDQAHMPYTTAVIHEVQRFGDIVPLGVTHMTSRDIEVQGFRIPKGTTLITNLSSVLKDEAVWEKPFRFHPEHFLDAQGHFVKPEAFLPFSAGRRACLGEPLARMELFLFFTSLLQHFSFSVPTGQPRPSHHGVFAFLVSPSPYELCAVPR
- protocol summary: CYP2D6 inhibition screening test (bufuralol 1'-hydroxylation, pooled human liver microsomes)
- Format: in vitro ADME
- condition info: substrate bufuralol, 37° C. 10 min
readout label: pIC50
Hey, just a heads up that pIC50 is the negative log base 10 of the concentration in molar.

Return pIC50 for the following molecule: O=c1ccoc2ccc(CCN3CCC(Cc4ccc(Br)c(O)c4)CC3)cc12 [Compound 5-9]
4.77

Return pIC50 for the following molecule: O=C1c2cc(CCN3CCC(Cc4ccc(Br)c(O)c4)CC3)ccc2OCC1O (centres unmarked) [Compound 5-5]
4.64

Return pIC50 for the following molecule: Cl.O=c1ccoc2ccc(CCN3CCC(Cc4ccc(Br)c(OCCO)c4)CC3)cc12 [Compound 5-7, hydrochloride]
4.46

Return pIC50 for the following molecule: COCCOc1cc(CC2CCN(CCc3ccc4occc(=O)c4c3)CC2)ccc1Br.Cl [Compound 5-6, hydrochloride]
4.55

Return pIC50 for the following molecule: O=C1CCOc2ccc(CCN3CCC(Cc4ccc(Br)c(O)c4)CC3)cc21 [Compound 5-8]
5.00

Return pIC50 for the following molecule: COCCOc1cc(CC2CCN(CC(O)c3ccc4c(c3)C(=O)CCO4)CC2)ccc1Br.Cl (centres unmarked) [Compound 5-11, hydrochloride]
4.75

Return pIC50 for the following molecule: OCCOc1cc(CC2CCN(CCc3ccc4c(c3)C(O)CCO4)CC2)ccc1Br (centres unmarked) [Compound 5-2]
4.39

* * *

- target: human serotonin transporter (h-SERT) (Homo sapiens (Human), UniProt P31645)
- Sequence (P31645 whole entry): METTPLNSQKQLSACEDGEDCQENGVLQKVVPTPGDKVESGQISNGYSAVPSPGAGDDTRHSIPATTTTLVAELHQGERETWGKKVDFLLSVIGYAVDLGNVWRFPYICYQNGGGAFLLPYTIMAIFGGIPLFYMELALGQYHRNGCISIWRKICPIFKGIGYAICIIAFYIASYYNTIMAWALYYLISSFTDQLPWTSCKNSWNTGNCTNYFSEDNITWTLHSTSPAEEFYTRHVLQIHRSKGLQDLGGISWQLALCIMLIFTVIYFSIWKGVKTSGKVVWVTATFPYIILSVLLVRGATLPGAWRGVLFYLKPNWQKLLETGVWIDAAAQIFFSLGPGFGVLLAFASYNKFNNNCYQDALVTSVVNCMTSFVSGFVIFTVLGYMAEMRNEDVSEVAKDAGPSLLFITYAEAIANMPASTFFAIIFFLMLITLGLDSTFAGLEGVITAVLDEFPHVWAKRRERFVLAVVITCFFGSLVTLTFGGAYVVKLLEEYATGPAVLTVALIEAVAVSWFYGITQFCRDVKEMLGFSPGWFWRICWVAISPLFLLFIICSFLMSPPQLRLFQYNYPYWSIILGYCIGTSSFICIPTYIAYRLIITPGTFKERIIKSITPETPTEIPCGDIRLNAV
- protocol summary: [3H] citalopram binding screening test for inhibitory effect on human serotonin reuptake
- condition info: h-SERT/CHO membrane preparation, [3H] citalopram approx. 2 nM
pIC50: −log10 of the molar value. Structures can show the parent of a compound that is named as a salt.
readout label: pIC50

Return pIC50 for the following compound: O=C(O)COc1cc(CC2CCNCC2)ccc1Br [Compound 4-12, hydrochloride, reference compound]
< 5.00

Return pIC50 for the following compound: O=C(O)COc1cc(CC2CCN(CCc3ccc4occc(=O)c4c3)CC2)ccc1Br [Compound 4-11, hydrochloride, reference compound]
< 5.00

* * *

- target: CYP2D6 (Homo sapiens (Human), UniProt P10635)
- protocol summary: CYP2D6 inhibition screening test (bufuralol 1'-hydroxylation, pooled human liver microsomes)
- Assay type: in vitro ADME
- condition info: substrate bufuralol, 37° C. 10 min
Kindly state IC50 for each of the entries shown.
Give the number; µM is assumed, so skip it.

Return IC50 for the following compound: Oc1cc(CC2CCN(CCc3ccc4c(c3)C(O)CCO4)CC2)ccc1Br (stereo not shown) [Compound 5-15]
40.3

Return IC50 for the following compound: COCCOc1cc(CC2CCN(CCc3ccc4c(c3)C(=O)C(O)CO4)CC2)ccc1Br.Cl (stereo not shown) [Compound 5-3, hydrochloride]
36.2

Return IC50 for the following compound: COCCOc1cc(CC2CCN(CCc3ccc4c(c3)C(=O)CC(O)O4)CC2)ccc1Br (stereo not shown) [Compound 5-10]
44.9

Return IC50 for the following compound: COCCOc1cc(CC2CCN(CCc3ccc4occ(O)c(=O)c4c3)CC2)ccc1Br [Compound 5-14]
37.6

* * *

- target: human serotonin 1A receptor (h-5-HT1A) (Homo sapiens (Human))
- Sequence (P08908 whole entry): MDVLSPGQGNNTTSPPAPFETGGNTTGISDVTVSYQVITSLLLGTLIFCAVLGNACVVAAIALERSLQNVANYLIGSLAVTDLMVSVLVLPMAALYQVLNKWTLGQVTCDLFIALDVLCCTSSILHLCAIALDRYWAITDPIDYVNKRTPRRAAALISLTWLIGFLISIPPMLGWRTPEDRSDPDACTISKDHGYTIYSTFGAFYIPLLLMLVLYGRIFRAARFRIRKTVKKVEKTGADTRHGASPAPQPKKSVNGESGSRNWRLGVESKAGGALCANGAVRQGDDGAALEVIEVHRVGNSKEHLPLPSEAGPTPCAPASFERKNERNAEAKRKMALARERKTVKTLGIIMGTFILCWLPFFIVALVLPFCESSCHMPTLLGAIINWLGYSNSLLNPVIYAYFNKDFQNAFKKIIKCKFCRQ
pKi: −log10 of the molar value. Where a name gives a salt, the structure may show the parent alone.
Label scheme for pKi: lower than 8 is Criterion not met, 8 and above is Criterion met.

Say whether O=C1c2cc(CCN3CCC(Cc4ccc(Br)c(O)c4)CC3)ccc2OCC1O (stereo not drawn) shows pKi of 8 or more.
Criterion met

Say whether Cl.O=c1ccoc2ccc(CCN3CCC(Cc4ccc(Br)c(OCCO)c4)CC3)cc12 [Compound 5-7, hydrochloride] shows pKi of 8 or more.
Criterion met

Say whether O=C(O)COc1cc(CC2CCN(CCc3ccc4c(c3)C(=O)C(O)CO4)CC2)ccc1Br (stereo not drawn) [Compound 4-10, hydrochloride, reference compound] shows pKi of 8 or more.
Criterion not met

Say whether COCCOc1cc(CC2CCN(CCc3ccc4c(c3)C(=O)CC(O)O4)CC2)ccc1Br (stereo not drawn) shows pKi of 8 or more.
Criterion not met

Say whether COCCOc1cc(CC2CCN(CCc3ccc4occc(=O)c4c3)CC2)ccc1Br.Cl [Compound 5-6, hydrochloride] shows pKi of 8 or more.
Criterion met

Say whether O=C(O)COc1cc(CC2CCN(CCc3ccc4occc(=O)c4c3)CC2)ccc1Br [Compound 4-11, hydrochloride, reference compound] shows pKi of 8 or more.
Criterion not met

* * *

- target: human serotonin transporter (h-SERT) (Homo sapiens (Human))
- protocol summary: [3H] citalopram binding screening test for inhibitory effect on human serotonin reuptake
- condition info: h-SERT/CHO membrane preparation, [3H] citalopram approx. 2 nM; read-out: h-SERT binding inhibition constant (Ki)
Counter-ions that a name gives are not always drawn.
Note to self: use t only for Ki readings below 2 nM; a reading exactly at 2 nM still gets f.

Is it true that Ki reported for COCCOc1cc(CC2CCN(CC(O)c3ccc4c(c3)C(=O)CCO4)CC2)ccc1Br.Cl (centres unmarked) [Compound 5-11, hydrochloride] is less than 2 nM?
f

Is it true that Ki reported for COCCOc1cc(CC2CCNCC2)ccc1Br [RE1, hydrochloride] is less than 2 nM?
f

Is it true that Ki reported for `COCCOc1cc(CC2CCN(CCc3ccc4occ(O)c(=O)c4c3)CC2)ccc1Br` is less than 2 nM?
t

Is it true that Ki reported for COCCOc1cc(CC2CCN(CCc3ccc4c(c3)C(=O)CC(O)O4)CC2)ccc1Br (centres unmarked) is less than 2 nM?
t

Is it true that Ki reported for COCCOc1cc(CC2CCN(CCc3ccc4occc(=O)c4c3)CC2)ccc1Br.Cl [Compound 5-6, hydrochloride] is less than 2 nM?
t

Is it true that Ki reported for `OCCOc1cc(CC2CCNCC2)ccc1Br` is less than 2 nM?
f

Is it true that Ki reported for `O=C1CCOc2ccc(CCN3CCC(Cc4ccc(Br)c(O)c4)CC3)cc21` is less than 2 nM?
f

Is it true that Ki reported for O=C(O)COc1cc(CC2CCN(CCc3ccc4c(c3)C(=O)C(O)CO4)CC2)ccc1Br (centres unmarked) [Compound 4-10, hydrochloride, reference compound] is less than 2 nM?
f

* * *

- target: UniProtKB P31645
- protocol summary: [3H] citalopram binding screening test for inhibitory effect on human serotonin reuptake
- condition info: h-SERT/CHO membrane preparation, [3H] citalopram approx. 2 nM; read-out: h-SERT binding inhibition constant (Ki)
Kindly state pKi for each of the entries shown.
Hey, just a heads up that pKi is the negative log base 10 of the concentration in molar.

Return pKi for the following molecule: O=c1ccoc2ccc(CCN3CCC(Cc4ccc(Br)c(O)c4)CC3)cc12 [Compound 5-9]
8.77

Return pKi for the following molecule: OCCOc1cc(CC2CCN(CCc3ccc4c(c3)C(O)CCO4)CC2)ccc1Br (stereo not shown) [Compound 5-2]
7.14

Return pKi for the following molecule: Oc1cc(CC2CCN(CCc3ccc4c(c3)C(O)CCO4)CC2)ccc1Br (stereo not shown) [Compound 5-15]
7.39

Return pKi for the following molecule: Cl.O=c1ccoc2ccc(CCN3CCC(Cc4ccc(Br)c(OCCO)c4)CC3)cc12 [Compound 5-7, hydrochloride]
8.46

* * *

- target: UniProt:P10635
- protocol summary: Screening test on contribution ratio of CYP2D6 in human liver microsomal metabolism
- Assay type: in vitro ADME
- condition info: 1 mg/mL human liver microsomes, 1 μM test substance, with/without 4 μM quinidine; values marked *) are reference values due to relative stability
readout label: CYP2D6 contribution ratio

Return CYP2D6 contribution ratio for the following compound: O=C1c2cc(CCN3CCC(Cc4ccc(Br)c(OCCO)c4)CC3)ccc2OCC1O (stereo not shown)
0*) %

Return CYP2D6 contribution ratio for the following compound: `Cl.O=c1ccoc2ccc(CCN3CCC(Cc4ccc(Br)c(OCCO)c4)CC3)cc12`
9.2*) %

Return CYP2D6 contribution ratio for the following compound: COCCOc1cc(CC2CCN(CCc3ccc4c(c3)C(=O)C(O)CO4)CC2)ccc1Br.Cl (stereo not shown)
0*) %

Return CYP2D6 contribution ratio for the following compound: Oc1cc(CC2CCN(CCc3ccc4c(c3)C(O)CCO4)CC2)ccc1Br (stereo not shown)
0*) %

* * *

readout label: Ki (nM)
Give the number; nM is assumed, so skip it.

Tell me Ki of Oc1cc(CC2CCN(CCc3ccc4c(c3)C(O)CCO4)CC2)ccc1Br (stereo not drawn) when tested on human serotonin 1A receptor (h-5-HT1A) (Homo sapiens (Human)).
8.5

Tell me Ki of COCCOc1cc(CC2CCN(CCc3ccc4c(c3)C(=O)C(O)CO4)CC2)ccc1Br.Cl (stereo not drawn) [Compound 5-3, hydrochloride] when tested on human serotonin 1A receptor (h-5-HT1A) (Homo sapiens (Human)).
7.4

Tell me Ki of COCCOc1cc(CC2CCN(CC(O)c3ccc4c(c3)C(=O)CCO4)CC2)ccc1Br.Cl (stereo not drawn) [Compound 5-11, hydrochloride] when tested on human serotonin 1A receptor (h-5-HT1A) (Homo sapiens (Human)).
17
